# method description: Pharmacokinetic study in mice (plasma, NCA)
# condition parameters: mouse, intravenous, 400 nmol/kg
outcome measure: C0 (nM)
Field: numeric (nM). Do not append units.

Return C0 (reported value) for this molecule: CCCCCC(=O)N[C@H]1CSCc2cc(CSCCNC(=O)CN3CCN(CC(=O)O)CCN(CC(=O)O)CCN(CC(=O)O)CC3)cc(c2)CSC[C@@H](C(=O)O)NC(=O)[C@H](Cc2ccccc2)NC(=O)[C@H](CCC(N)=O)NC(=O)[C@H]([C@@H](C)O)NC(=O)[C@@H]2CCCN2C(=O)[C@@H]2CCCN2C1=O
2130

###

Assign IC50 to each entry below.
# measured target: Human recombinant FAP (Homo sapiens)
# Sequence (Q12884 whole entry): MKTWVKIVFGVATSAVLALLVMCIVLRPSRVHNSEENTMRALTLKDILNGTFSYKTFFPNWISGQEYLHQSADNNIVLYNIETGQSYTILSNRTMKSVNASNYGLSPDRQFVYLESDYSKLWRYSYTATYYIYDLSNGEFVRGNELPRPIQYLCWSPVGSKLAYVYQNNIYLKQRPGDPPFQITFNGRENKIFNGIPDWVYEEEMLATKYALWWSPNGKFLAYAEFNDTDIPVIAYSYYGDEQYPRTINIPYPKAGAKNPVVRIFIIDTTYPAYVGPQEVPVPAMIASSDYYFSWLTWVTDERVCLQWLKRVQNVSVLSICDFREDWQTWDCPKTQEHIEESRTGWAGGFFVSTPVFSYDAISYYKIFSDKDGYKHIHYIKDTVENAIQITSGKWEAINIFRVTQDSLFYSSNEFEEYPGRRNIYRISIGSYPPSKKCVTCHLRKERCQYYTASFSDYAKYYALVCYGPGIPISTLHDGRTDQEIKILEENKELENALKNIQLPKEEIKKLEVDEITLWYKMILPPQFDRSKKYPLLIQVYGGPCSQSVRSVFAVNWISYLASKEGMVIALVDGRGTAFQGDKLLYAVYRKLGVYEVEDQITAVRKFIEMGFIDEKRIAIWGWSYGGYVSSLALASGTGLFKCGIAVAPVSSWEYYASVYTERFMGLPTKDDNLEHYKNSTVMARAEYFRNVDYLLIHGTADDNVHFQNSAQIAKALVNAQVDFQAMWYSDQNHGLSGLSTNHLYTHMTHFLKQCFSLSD
# method description: FRET-based FAP protease activity assay
# Assay type: biochemical
# Set-up: purchased R&D systems 3715-SE
# condition parameters: pIC50 Category (activity), Recombinant human FAP
Numbered stars: 1 amine (or outer) side, 2 acyl side, 3 side chain; on linkers, the order of the positions; unused ones are H or OH. Bridge positions count the residues as written; N and C are the ends. Square brackets hold non-standard residues; d marks the D form. Peptide text beside a SMILES is read from it. * marks the point of attachment. ξ: configuration not given here. X10 = O=C(O)CN1CCN(CC(=O)O)CCN(C(CCC(=O)NCCCOCCOCCOCCCN*)C(=O)O)CC1; X1 = NCCNCC(CNCCN)C(=O)N1CCN(CC(=O)NCCCOCCOCCOCCCN*)CC1; mXylylene = c1cc(C[*:1])cc(C[*:2])c1; Suc = O=C(CCC(=O)[*:2])[*:1]; Nle = CCCC[C@H](N)C(=O)O; ξC = NC(CS)C(=O)O; βAla = NCCC(=O)O

Provide IC50 value for the following compound: CCCC[C@H](NC(=O)CCC(=O)NCCCOCCOCCOCCCNC(=O)CCC(C(=O)O)N1CCN(CC(=O)O)CCN(CC(=O)O)CC1)C(=O)N[C@H]1CSCc2cccc(c2)CSCC(C(N)=O)NC(=O)[C@H](Cc2ccccc2)NC(=O)[C@H](CCC(=O)O)NC(=O)[C@H]([C@@H](C)O)NC(=O)[C@@H]2CCCN2C(=O)[C@@H]2CCCN2C1=O (stereo partly drawn) [3BP-4743] ({X10-Suc}-[Nle]CPPTEF[ξC]-NH2; linker 2-8 via mXylylene)
10 to 79.4 nM

Consider the compound CCCC[C@H](NC(=O)CCC(=O)NCCCOCCOCCOCCCNC(=O)CN1CCN(C(=O)C(CNCCN)CNCCN)CC1)C(=O)N[C@H]1CSCc2cccc(c2)CSC[C@@H](C(=O)NCCC(=O)O)NC(=O)[C@H](Cc2ccccc2)NC(=O)[C@H](CCC(=O)O)NC(=O)[C@H]([C@@H](C)O)NC(=O)[C@@H]2CCCN2C(=O)[C@@H]2CCCN2C1=O [3BP-4784] ({X1-Suc}-[Nle]CPPTEFC[βAla]-OH; linker 2-8 via mXylylene) and give its recorded IC50.
< 10 nM

Report IC50 for CCCCNC(=O)N[C@H]1CSCc2cc(CSCCNC(=O)CN3CCN(CC(=O)O)CCN(CC(=O)O)CC3)cc(c2)CSCC(C(=O)O)NC(=O)[C@H](Cc2ccccc2)NC(=O)[C@H](CCC(N)=O)NC(=O)[C@H]([C@@H](C)O)NC(=O)[C@@H]2CCCN2C(=O)[C@@H]2CCCN2C1=O (stereo partly drawn) [3BP-5210]
< 10 nM
